// provenance: paper PMC9482650

Target: T1, DLG3_3, Q92796
T1 sequence (Q92796 374-475, limits assumed, looked up): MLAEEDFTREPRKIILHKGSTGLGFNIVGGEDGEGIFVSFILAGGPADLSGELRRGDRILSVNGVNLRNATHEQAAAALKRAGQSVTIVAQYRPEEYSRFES
Test: holdup assay
Set-up: key: below the threshold = too weak to quantify, mostly under pKd 3.1 to 4
Conditions: plain residues with an end cap or a label only (N-terminal biotin on a linker: ado-ado)
PARAMETER_MEASURED: pKd

Example cases with answers are listed next.
>  <BINDER>
EEPEERHTEL [CES2, O00748]

>  <REPORTED_MEASUREMENT>
below the threshold

$$$$
>  <BINDER>
GFGEERESIL [KIDINS220, Q9ULH0]

>  <REPORTED_MEASUREMENT>
below the threshold

$$$$
>  <BINDER>
FVHPILQSAV [PRKCA, P17252]

>  <REPORTED_MEASUREMENT>
3.57

$$$$
>  <BINDER>
TETASVCTKV [SLC23A1, Q9UHI7]

>  <REPORTED_MEASUREMENT>
below the threshold

$$$$

From here, focus on the item given below.
[ask] Give its pKd value. Item: QKNKDKEYYV [NRXN3_rs746444206, Q9Y4C0]
[reply] below the threshold
